Target: Chk1 (Homo sapiens)
Assay: Chk1 kinase assay, phosphorylation of Chktide (33P-ATP filtration)
Type: biochemical
Conditions: Table 4; 0.01 mM ATP; read-out: Chk1 IC50
Method: Assays for the Chk1 kinase activity were carried out by monitoring the phosphorylation of a synthetic peptide Chktide with the amino acid sequence, […]. […] The assay mixture contained 0.01 mM unlabeled ATP, 0.5 μCi ^33P-γ-ATP, 30 μM Chktide, 0.1 mg/ml BSA, 50 mM Hepes-NaOH pH 7.5 and 11 nM GST-Chk1 enzyme. […] The filtration plate was dried for 10 min at 65° C., scintillant added and phosphorylated peptide quantified in a scintillation counter (Trilux, PerkinElmer).
READOUT_TYPE: IC50 (µM)

Past entries and their recorded results:
{"COMPOUND": "CCN(CC)CCNC(=O)c1ccc(Nc2cc(-c3cccc(OCCN)c3)n3ncnc3n2)cc1 [Example 165]", "UNIT_ABBREV": "µM", "IC50": 1.4}
{"COMPOUND": "Fc1cccc(-c2cc(Nc3ccc(Sc4ccccc4)cc3)nc3ncnn23)c1 [Example 155]", "UNIT_ABBREV": "µM", "IC50": 15.1}

(A) NCCCOc1cccc(-c2cc(Nc3ccc(C(N)=O)cc3)nc3ncnn23)c1 [Example 147]
(B) CCOc1cccc(-c2cc(Nc3ccc(C(N)=O)cc3)nc3ncnn23)c1 [Example 144]
(C) CCCc1cc(OCCN(C)C)cc(-c2cc(Nc3ccc(C(N)=O)cc3)nc3ncnn23)c1 [Example 162]
(D) O=S(=O)(Nc1nccs1)c1ccc(Nc2cc(-c3cccc(F)c3)n3ncnc3n2)cc1 [Example 156]
(E) CCCc1cc(OCCN)cc(-c2cc(Nc3ccc(C(N)=O)cc3)nc3ncnn23)c1 [Example 161]
Hey, quick one: sort these by IC50, low to high? Answer by listing the labels in the order asked for.
A, E, D, C, B
(A: 5.21 µM, E: 9.04 µM, D: 13 µM, C: 31.7 µM, B: 68.3 µM)

---

molecular target: CDK2 enzyme, complexed with cyclin A (Homo sapiens, UniProt P24941); test: CDK2 cyclin dependent kinase assay, phosphorylation of synthetic peptide […] (33P-ATP filtration); assay type: biochemical; settings: Table 1; 0.1 mM ATP
pIC50: −log10 of the molar value.
READOUT_TYPE: pIC50

Past entries and their recorded results:
{"MOLECULE": "NC(=O)c1sccc1Nc1cc(-c2ccsc2)nc2ncnn12", "pIC50": 4.22}
{"MOLECULE": "NS(=O)(=O)c1ccc(Nc2cc(N3CCCCC3)nc3ncnn23)cc1", "pIC50": 6.21}
{"MOLECULE": "NS(=O)(=O)c1ccc(Nc2ccnc3ncnn23)cc1", "pIC50": 4.48}
{"MOLECULE": "NS(=O)(=O)c1cccc(Nc2cc(Cl)nc3ncnn23)c1", "pIC50": 4.39}

(P) NS(=O)(=O)c1ccc(Nc2cc(Oc3ccccc3)nc3ncnn23)cc1
(Q) Clc1cc(NCc2ccccc2)n2ncnc2n1
(R) Oc1ccc(Cl)cc1Nc1cc(Cl)nc2ncnn12
(S) CCN(CC)c1cc(Nc2ccc(S(N)(=O)=O)cc2)n2ncnc2n1
(T) NS(=O)(=O)c1ccc(Nc2cc(Nc3cccc(Cl)c3)nc3ncnn23)cc1
Rank the 5 molecules: largest pIC50 first, smallest last. Answer by listing the labels in the order asked for.
S, T, P, R, Q
(S: 6.41, T: 5.76, P: 4.70, R: 4.50, Q: 4.07)

(a) CCN(CC)CCNC(=O)c1ccc(Nc2cc(-c3cccc(C#N)c3)nc3ncnn23)cc1
(b) COc1ccc(Br)cc1-c1cc(N[C@H]2CC[C@H](O)CC2)n2ncnc2n1
Returns: the argument ( a or b ) having the larger pIC50. Give the label under which the chosen entry appears.
a

---

molecular target: Chk1 (Homo sapiens); test: Chk1 kinase assay, phosphorylation of Chktide (33P-ATP filtration); format: biochemical; conditions: Table 4; 0.01 mM ATP; read-out: Chk1 IC50
pIC50: −log10 of the molar value.
READOUT_TYPE: pIC50

{"COMPOUND": "CCc1cc(OCCN)cc(-c2cc(Nc3ccc(C(N)=O)cc3)nc3ncnn23)c1", "pIC50": 5.57}
{"COMPOUND": "NC(=O)c1ccc(Nc2cc(-c3cccc(OCc4cccnc4)c3)n3ncnc3n2)cc1", "pIC50": 5.01}

(1) NC(=O)c1ccc(Nc2cc(-c3cccc(O)c3)n3ncnc3n2)cc1
(2) CN(C)c1ccc(Nc2cc(-c3cccc(F)c3)n3ncnc3n2)cc1
(3) NC(=O)c1ccc(Nc2cc(-c3cccc(OCC4CCCNC4)c3)n3ncnc3n2)cc1 (stereo not drawn)
Rank the 3 compounds: largest pIC50 first, smallest last. Answer by listing the labels in the order asked for.
1, 2, 3

---

biological target: CDK2 enzyme, complexed with cyclin A (Homo sapiens, UniProt P24941); assay: CDK2 cyclin dependent kinase assay, phosphorylation of synthetic peptide […] (33P-ATP filtration); format: biochemical; details: Table 1; 0.1 mM ATP
pIC50: −log10 of the molar value.
READOUT_TYPE: pIC50

{"MOLECULE": "Clc1cc(NCc2ccncc2)n2ncnc2n1", "pIC50": 4.36}

(I) Clc1cccc(-c2cc(Nc3ccc4c(c3)OCO4)n3ncnc3n2)c1
(II) Cc1cccc(-c2cc(Nc3ccc(S(N)(=O)=O)cc3)n3ncnc3n2)c1
Returns: the argument ( I or II ) having the larger pIC50. Give the label under which the chosen entry appears.
II

---

molecular target: Chk1 (Homo sapiens, UniProt O14757); assay: Chk1 kinase assay, phosphorylation of Chktide (33P-ATP filtration); format: biochemical; settings: Table 4; 0.01 mM ATP; read-out: Chk1 IC50
Sequence (O14757 whole entry): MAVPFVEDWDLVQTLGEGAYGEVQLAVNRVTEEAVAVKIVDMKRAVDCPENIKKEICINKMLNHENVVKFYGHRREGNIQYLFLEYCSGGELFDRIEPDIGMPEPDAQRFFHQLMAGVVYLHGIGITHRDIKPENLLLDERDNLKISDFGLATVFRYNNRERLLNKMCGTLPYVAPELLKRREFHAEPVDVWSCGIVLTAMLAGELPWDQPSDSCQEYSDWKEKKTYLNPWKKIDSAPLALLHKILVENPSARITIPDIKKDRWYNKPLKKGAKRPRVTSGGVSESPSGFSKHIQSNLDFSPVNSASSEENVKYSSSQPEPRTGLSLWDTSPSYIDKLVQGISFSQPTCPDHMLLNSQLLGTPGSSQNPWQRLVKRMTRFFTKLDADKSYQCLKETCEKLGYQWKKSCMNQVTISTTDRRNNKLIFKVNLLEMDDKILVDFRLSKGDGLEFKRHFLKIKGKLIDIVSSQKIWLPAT
pIC50: −log10 of the molar value.
READOUT_TYPE: pIC50

{"MOLECULE": "NC(=O)Cc1ccc(Nc2cc(-c3ccc4c(c3)OCO4)n3ncnc3n2)cc1", "pIC50": 5.33}
{"MOLECULE": "Fc1cccc(-c2cc(Nc3ccc(Oc4ccccc4)cc3)nc3ncnn23)c1", "pIC50": 4.61}

(a) NC(=O)c1ccc(Nc2cc(-c3cccc(OCc4ccccc4)c3)n3ncnc3n2)cc1
(b) CCCc1cc(OC)cc(-c2cc(Nc3ccc(C(N)=O)cc3)nc3ncnn23)c1
Which gives the smaller pIC50 number: a or b ? Give the label under which the chosen entry appears.
b
